As shown below, each of these binders has a reported glycan array binding signal (z-score) value.
TESTED ON: Gal(b1-3)GlcNAc(b1-6)[Gal(b1-3)]GalNAc
ASSAY COMMENT: glycan array binding signal (z-score within array); higher = stronger binding
STUDY CONDITIONS: glycan notation: IUPAC condensed, linker removed
The full list was thinned out, with the strongest signals kept by preference.
ATTRIBUTE MEASURED: glycan array binding signal (z-score)

>>> measured_result("rCnSL-proB (Clitocybe nebularis) (protein) PTFSPIFALLAFLPFGTLASLLPQTQLVFRINPNLPGPNDVFVGYRGTNNVVGAIYERDGIKDTPMNNGADAELGPGSYITDDLFTAQIFASGSAGNNPGTTATVCKIYADGVQWRGAPKGYLPVLYFGNGQAAEQTRQTYLQGLDIPGTAIRFANLAKTPNQGPTAPRQMVVPSGGLQTLLKASCFPANHAALPQVLSYFNVRAALPPGWNIRTGPEFPNWTN")
-0.511
>>> measured_result("AT5G01260(PC)(40) (Arabidopsis thaliana), Q9LFB0 (protein) MIGIGRTLTSSSPSKIILEDLPPGIYRYGTEIFTSVPRKTFHHIKFLRLDSAQSSRILKPVPLRSSSIKDSQVNVEDEEIEASNKTVRVRFQLRKECVFGEHFFIVGDDPVFGGLWDPETALPLNWSDGNVWTVDLDLPVGRLVEFKLLLKAQTGEILWQPGPNRALETWETNKTIRICEDWDNADLQMMIEEDFVPYTNISSIGSEDEDEVLGSVQQNSSVVAVENAGYVSDESAQNSSFSIQSEKTMEPSNGALTAREVIKEAMFTEEESPVLVPGLIPLSDLDNEQVEVINEGKAETFPEVDKKQEPKAERNKKAKVKAISLFEKSEQEAVKSVEQRQYNAVEEEQQRLETEPLGTPDVLFENDIQWGRRTLYKLLSNFRLF")
-0.659
